# System: MS2 coat protein
# experimental.protocol: apparent KD of MS2 coat protein; designed switch direction (-1 OFF switch, 1 ON switch): 1; higher = weaker reporter binding
# condition.details: input ligand: none
measurement.type: apparent KD of MS2 coat protein (nM)
Numbers only, in nM.

Below: 6 sequences and their reported apparent KD of MS2 coat protein.
ACGCCCUCAGUAGGAUAUGGGAAAGGAAGUGUACCAGAAGGACUGGUUGAACAUGAGGAUCACCCAUGUUCAACGACAGGGCAA [PowerStrip SSNG 1.20] (Eterna round: R96, puzzle: Same State NG 1) :: 18.6
CCGAUUUAUGGAGGAUAUGGAGCCUUAUUGGCUCCAGAAGGUCAAUACAUGAGGAUCACCCAUGUGUCGGCGGUCAAUAGACCG [Eli NG1ss - 72] (Eterna round: R96, puzzle: Same State NG 1) :: 128
UGUUGUUAAUUAGGAUAUGGUCACAUGAGGAUCACCCAUGUAAUGUCGAUGCUAUGUGGAUACGAUCAGAAGGAAUGGCUAACA [SameState NG2 #94] (Eterna round: R96, puzzle: Same State NG 2) :: 175
AGGCUCAGACGAGGAUAUAUGUCUCGAGCUUCGGCUCGAGACAUGAGGAUCACCCAUGUAAUAACAUAGAAGGUGUCUGAGCCA [SSNG2/1-C1] (Eterna round: R96, puzzle: Same State NG 2) :: 253
AAGAAAUCCGCAGGAUAUCCUAAGCCGGACUUAGGAGAAGGGUGGCCACAUGAGGAUCACCCAUGUAAAAGCUGAAUCACAGCC [Vetianeste] (Eterna round: R96, puzzle: Same State NG 1) :: 497
GGGAGAGGUACAGGAUAUGGUGAGGAUCACCCACUAGAAGGGUGCACAUGUGAAUCGGACAUGAGGAUCACCCAUGUUUGGCGU (Eterna round: R96, puzzle: Same State NG 1) :: 133

Give apparent KD of MS2 coat protein for all sequences that follow.
1. CCGCUCUAUGGAGGAUAUGGGCCUGCCCGGGAUAACGGGCCUAAUACAUGAGGAUCACCCAUGUCCCAGAAGGCCGCUAGAGCC [Errexexe] (Eterna round: R96, puzzle: Same State NG 2)
2. CUGAGCAAUCAAGGAUAUCACGUCGAUUAGACGUGAGAAGGUGAUCAUAACAUGAGGAUCACCCAUGUAUUACAUGGAGCUCAG [Brourd's SSNG1/1-A2 mod 1] (Eterna round: R96, puzzle: Same State NG 1)
3. AGCCGAGACACAGGAUAUAGAUAUCUACAUGAGGAUCACCCAUGUAGCAACACGUGGUAGUGAUACUAGAAGGGUGCUCGGCGC [Omei SS(NG)2 Cv9] (Eterna round: R96, puzzle: Same State NG 2)

A.
1: 471; 2: 397; 3: 73.1
